# Protocol Description: Biodistribution experiments in normal mice after i.v. injection
# Assay type: in vivo
# Condition Description: male, ddY, mouse, in vivo, iv, total radioactivity, mice, i.v., 180 min after injection, mean (SD); read-out: Biodistribution of radioactivity, Lung
Where a SMILES comes first, the peptide text is derived from it. [ ]: non-standard residue; d: D form. The star is where a group is joined. DOTA = O=C(O)CN1CCN(CC(=O)O)CCN(CC(=O)*)CCN(CC(=O)O)CC1
Result Type: tissue uptake dose at 3 h (%ID)
State the answer as a number, implicitly in %ID.

Recorded tissue uptake dose at 3 h of O=C(O)C[C@@H](NC(=O)[C@@H](CC(=O)O)NC(=O)[C@@H](CC(=O)O)NC(=O)[C@@H](CC(=O)O)NC(=O)[C@@H](CC(=O)O)NC(=O)[C@@H](CC(=O)O)NC(=O)[C@@H](CC(=O)O)NC(=O)[C@@H](CC(=O)O)NC(=O)[C@@H](CC(=O)O)NC(=O)[C@@H](CC(=O)O)NC(=O)[C@@H](CC(=O)O)NC(=O)CN1CCN(CC(=O)O)CCN(CC(=O)O)CCN(CC(=O)O)CC1)C(=O)O [^67Ga-DOTA-(D-Asp)11, metal not drawn] ({DOTA}-[dD][dD][dD][dD][dD][dD][dD][dD][dD][dD][dD]-OH) , please.
0.05
